Overview of recorded self-cleavage kobs at 2500 uM GlcN6P for various variants
B1: glmS ribozyme (parent)
chain: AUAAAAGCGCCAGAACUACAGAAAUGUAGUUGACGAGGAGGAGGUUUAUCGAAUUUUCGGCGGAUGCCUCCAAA

variants of: B1; experiment: self-cleavage kobs at 2500 uM GlcN6P; higher = faster cleavage; RNA array; conditions: with glucosamine-6-phosphate
Fewer inactive variants are shown than the library holds.
// note: answer is a bare numeric in s⁻¹

variantId: A12C U65G
valueType: self-cleavage kobs at 2500 uM GlcN6P
unitOfMeasure: s⁻¹
experimentalValue: 0.00157
--
variantId: U46A G66C
valueType: self-cleavage kobs at 2500 uM GlcN6P
unitOfMeasure: s⁻¹
experimentalValue: 0.000776
--
variantId: G44A U55G
valueType: self-cleavage kobs at 2500 uM GlcN6P
unitOfMeasure: s⁻¹
experimentalValue: 0.000228
--
variantId: C50A U56G C70A
valueType: self-cleavage kobs at 2500 uM GlcN6P
unitOfMeasure: s⁻¹
experimentalValue: 8.66e-05
--
variantId: U47C A52U
valueType: self-cleavage kobs at 2500 uM GlcN6P
unitOfMeasure: s⁻¹
experimentalValue: 0.000145
--
variantId: A14G G41A
valueType: self-cleavage kobs at 2500 uM GlcN6P
unitOfMeasure: s⁻¹
experimentalValue: 0.00232
--
variantId: C16A G29A C70A
valueType: self-cleavage kobs at 2500 uM GlcN6P
unitOfMeasure: s⁻¹
experimentalValue: 6.39e-05
--
variantId: A14U U30G G38A U69G
valueType: self-cleavage kobs at 2500 uM GlcN6P
unitOfMeasure: s⁻¹
experimentalValue: 0.00012
--
variantId: C50U C71U
valueType: self-cleavage kobs at 2500 uM GlcN6P
unitOfMeasure: s⁻¹
experimentalValue: 4.54e-05

// next entry
Form field: reported self-cleavage kobs at 2500 uM GlcN6P of G38U C50G
6.94e-05
